- Assay procedure: qHTS assay for small molecule antagonists of peroxisome proliferator-activated receptor delta signaling (AID 588535);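 further: cells co-treated with a PPAR-delta agonist as stimulator during compound exposure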
- Run conditions: HEK293T PPARd-UAS-bla, beta-lactamase FRET ratio, 18 h; 460 nm channel
Results filed as inconclusive are left out.
Value kind: max response

Here's what some known entries look like.
| Molecule | Value kind | Obs value |
| --- | --- | --- |
| CC(=O)N[C@@H](CS)C(=O)O | max response | -4.28% |
| CCCNC(=O)NS(=O)(=O)c1ccc(Cl)cc1 | max response | 8.72% |
| CN(C)CCC(c1ccccc1)c1ccccn1 (stereo not given) | max response | 37.9% |
| CC(C)OC(=O)C(C)(C)Oc1ccc(C(=O)c2ccc(Cl)cc2)cc1 | max response | 43.3% |

// next entry
Which measured max response value corresponds to `O=C(O)c1cc(-c2ccccc2)nc2ccccc12` ?
54.7%

====

- Assay target: Cytochrome P450 2C9 (Homo sapiens)
- Assay procedure: Cytochrome P450 family 2 subfamily C member 9 (CYP2C9) small molecule antagonists: luciferase biochemical (cell-free) qHTS assay (AID 1645842); further: nearly all actives have a fitted effect of over 55% in size
- Run conditions: P450-Glo CYP2C9 enzyme assay, luciferin luminescence; series mostly up to 57.4 µM
Records with an inconclusive call do not appear. The source made the active and inactive calls. Calls come from the whole dose curve; as a rule, active = well fitted inhibition curve with a large enough effect in the repeat runs; inconclusive = weak or mixed curves; inactive = no such curve, though single readings can be large or run the other way.
# valid calls are active, inactive; nothing else

| Compound | Assay target | Class assignment |
| --- | --- | --- |
| Cc1c(NC(=O)c2ccc(C(C)(C)C)cc2)cccc1-c1cn(C)c(=O)c(Nc2ccc(C(=O)N3CCOCC3)cc2)n1 | Cytochrome P450 2C9 (Homo sapiens) | active |
| CC(C)C(=O)Nc1ncc(-c2cc(C(F)F)nn2-c2c(Cl)cccc2Cl)s1 | Cytochrome P450 2C9 (Homo sapiens) | active |

Hi, sorry to bother you, what did the test record for `CC(C)(C)NC(=O)Nc1cccc(Nc2ncc(F)c(NC(C)(C)CO)n2)c1` ?
active

Lab log entry: COc1cccc2c1CCCC2CCCN1CCN(C2CCCCC2)CC1 (centres undefined) — outcome as called in the assay?
inactive

I would be grateful if you could indicate the recorded call for `CC[C@]1(O)C[C@@H]2CN(CCc3c([nH]c4ccccc34)[C@@](C(=O)OC)(c3cc4c(cc3OC)N(C)[C@H]3[C@@](O)(C(=O)OC)[C@H](OC(C)=O)[C@]5(CC)C=CCN6CC[C@]43[C@@H]65)C2)C1` .
inactive

Call for entry `CCCCC1C(=O)N(c2ccccc2)N(c2ccccc2)C1=O` :
active

Assay result, entry `CON=C(C(=O)N[C@@H]1C(=O)N2C(C(=O)OCOC(=O)C(C)(C)C)=C(C=Cc3scnc3C)CS[C@H]12)c1csc(N)n1` — outcome?
active

Could you check what this test reported for `Clc1ccc(Cn2c(CN3CCCC3)nc3ccccc32)cc1` ?
active

Hey, what did the test say about `O=C(CCCCCCC(=O)Nc1ccccc1)NO` ?
inactive

====

- Assay target: Nicotinamide N-methyltransferase (Homo sapiens) (UniProt P40261)
- Sequence (P40261 whole entry, looked up): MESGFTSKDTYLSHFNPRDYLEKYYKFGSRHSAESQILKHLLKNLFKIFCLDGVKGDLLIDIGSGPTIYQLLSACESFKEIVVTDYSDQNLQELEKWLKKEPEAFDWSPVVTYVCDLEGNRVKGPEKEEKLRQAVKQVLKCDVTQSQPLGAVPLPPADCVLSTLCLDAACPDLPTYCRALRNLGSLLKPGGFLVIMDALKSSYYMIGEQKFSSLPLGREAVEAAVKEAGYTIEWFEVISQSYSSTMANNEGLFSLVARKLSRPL
- Assay procedure: Confirmatory Screen for Target Class Profiling of Small Molecule Inhibitors of Methyltransferases (AID 1745852)
- Run conditions: MTase-Glo luminescence, SAH detection, recombinant enzyme; measured here: NNMT max response; stronger effect = lower value
Value kind: activity (%)
Express your answer in %, writing the number without its unit.

| Structure notation | Uom | activity |
| --- | --- | --- |
| Cc1cccc(Nc2nc(-c3ccncc3)cs2)c1 | % | -73.8 |
| CN1CCN(CCOc2cc(OC3CCOCC3)c3c(Nc4c(Cl)ccc5c4OCO5)ncnc3c2)CC1 | % | -34.6 |
| O=C(Nc1ccccc1-c1cn2c(CN3CCNCC3)csc2n1)c1cnc2ccccc2n1 | % | -43.9 |
| CC1(C)CCC(CN2CCN(c3ccc(C(=O)NS(=O)(=O)c4ccc(NCC5CCOCC5)c([N+](=O)[O-])c4)c(Oc4cnc5[nH]ccc5c4)c3)CC2)=C(c2ccc(Cl)cc2)C1 | % | -11.4 |
| CC[C@]1(O)C[C@@H]2CN(CCc3c([nH]c4ccccc34)[C@@](C(=O)OC)(c3cc4c(cc3OC)N(C)[C@H]3[C@@](O)(C(=O)OC)[C@H](OC(C)=O)[C@]5(CC)C=CCN6CC[C@]43[C@@H]65)C2)C1 | % | -2.58 |
| COc1cc(N2CCC(N3CCN(C)CC3)CC2)ccc1Nc1ncc(Cl)c(Nc2ccccc2S(=O)(=O)C(C)C)n1 | % | -19 |

I am curious: what activity value has been reported for `NC(=O)c1cnc(-c2ccc(C3(N)CCC3)cc2)c(-c2ccccc2)c1` ?
-51.4

What measured activity goes with `CC1(C)CCC2=C(O1)c1ccccc1C(=O)C2=O` ?
-22.7

====

- Assay procedure: Quantitative High-Throughput drug screen in 47 multiple myeloma cell lines against the NCATS MIPE library collection: KMS34_JCRB cell viability assay (AID 1918985); further: nearly all actives have a fitted effect of over 40% in size
- Run conditions: KMS34 myeloma viability, CellTiter-Glo ATP luminescence, 48 h; series mostly up to 45.8 µM
Results filed as inconclusive are left out. Calls of active or inactive are those of the source. Calls follow the shape of the dose curve; as a rule, active = well fitted cell-killing curve with a large enough effect; inconclusive = small, poorly fitted or top-dose-only effect, or effect the other way; inactive = no such curve, though single readings can be large or run the other way.
Lab note: assign the record to one of Yes (active), No (inactive)

| Compound | Class assignment |
| --- | --- |
| N#Cc1ccc(NC(=O)Nc2ccccc2Br)c2n[nH]nc12 | No |
| O=c1cc(-c2ccc(O)cc2)oc2cc(O)cc(O)c12 | Yes |
| Clc1ccc(C(c2ccc(Cl)cc2)n2cc[n+](CC(OCc3ccc(Cl)cc3Cl)c3ccc(Cl)cc3Cl)c2)cc1 (centres undefined) | Yes |

Which outcome was entered for the compound C=C1C(=O)OC(CCCCCCCC)C1C(=O)O (centres undefined) in this test?
No

Look up the recorded call for `O=c1c(-c2ccc(O)cc2)coc2cc(O)ccc12` in this test.
No

Hello, I am checking results. What call was entered for `NS(=O)(=O)c1cccc2c1C(=O)c1cccc(O)c1C2=O` ?
Yes

====

- Test system: CRL-7250
- Assay procedure: Cytotoxic Profiling of Annotated Libraries Using Quantitative High-Throughput Screening (AID 1296008); further: on the % scale 0 is the no-effect control and ±100 the full control effect; nearly all actives have a fitted effect of over 60% in size
- Run conditions: Five cell lines viability, CellTiter-Glo ATP luminescence, 48-72 h; stronger effect = lower value
Records with an inconclusive call do not appear.
Recorded measurements of max response, one per entry
Report the figure in % without appending any unit label.

Answered cases to consult:
| Compound | max response / % |
| --- | --- |
| CCC(=O)NC[C@H](Cc1ccc(OCCc2nc(-c3ccccc3)oc2C)cc1)NC(C)=CC(=O)c1ccc(C(F)(F)F)cc1 | -13.2 |
| O=C(CCN1CCN(C(=O)OCc2cc(Cl)cc(Cl)c2)CC1)c1ccc2[nH]c(=O)oc2c1 | -14.6 |
| CCCCCNC(=O)N1CCC(CN(Cc2ccc(Cl)cc2)Cc2ccc([N+](=O)[O-])s2)C1 (centres undefined) | -21 |
| CC(=Cc1ccccc1)C=C1SC(=S)N(CC(=O)O)C1=O | -0.535 |
| NC(=O)[C@@H](CCC(F)(F)F)N(Cc1ccc(-c2ncon2)cc1F)S(=O)(=O)c1ccc(Cl)cc1 | -21.3 |

May I ask what max response has been recorded for `Cc1[nH]c(C=C2C(=O)Nc3ccc(S(=O)(=O)Cc4c(Cl)cccc4Cl)cc32)c(C)c1C(=O)N1CCC[C@H]1CN1CCCC1` ?
1.44

I would be grateful if you could share the reported max response for `Cc1ccc(/C=N/NC(=O)c2ccccc2Oc2ccccc2)o1` .
-0.512

Fill in the blank: the reported max response of `CCN(CC)CCOc1ccc(C(=C(Cl)c2ccccc2)c2ccccc2)cc1` is ____.
-5.74

Tell me the measured max response of `O=c1cc(-c2ccc(O)cc2)oc2cc(O)cc(O)c12` , please.
-23.1

====

- Assay procedure: qHTS assay for small molecule agonists of the antioxidant response element (ARE) signaling pathway (AID 651741); on activation: % of control where 0% means no effect
- Run conditions: HepG2 ARE-bla reporter, beta-lactamase FRET ratio, 16 h; series mostly up to 96 µM
Results filed as inconclusive are left out. Calls of active or inactive are those of the source. Calls follow the shape of the dose curve; as a rule, active = well fitted activation curve with a large enough effect in the signal ratio; inconclusive = small, poorly fitted or top-dose-only effect, or effect the other way, or a change in a side signal; inactive = flat fitted curve, though single readings scatter; the % refers to the signal ratio.
Respond using exactly one of the listed classes: active, inactive

Consider the worked cases shown below.
| Molecule | Class assignment |
| --- | --- |
| O=C(O)Cc1cccc2ccccc12 | inactive |
| CN(C)CCC(c1ccccc1)c1ccccn1 (configuration not stated) | active |
| CCn1cc(C(=O)O)c(=O)c2ccc(C)nc21 | inactive |
| CCCNC(=O)NS(=O)(=O)c1ccc(Cl)cc1 | inactive |
| CC(=O)N[C@@H](CS)C(=O)O | inactive |

Called result for `CCCCC1C(=O)N(c2ccccc2)N(c2ccccc2)C1=O`
inactive

Would you mind telling me which call this test gave `O=c1cc(-c2ccccc2)oc2cc(O)cc(O)c12` ?
active

====

- Assay procedure: qHTS of pediatric cancer cell lines to identify multiple opportunities for drug repurposing: Primary screen for SJ-GBM2 cells (AID 1347091)
- Run conditions: SJ-GBM2 viability, CellTiter-Glo luminescence, 48 h; series mostly up to 46 µM
Results filed as inconclusive are left out. Active and inactive are the calls of the source. Calls come from the whole dose curve; as a rule, active = well fitted cell-killing curve with a large enough effect; inconclusive = small, poorly fitted or top-dose-only effect; inactive = no such curve, though single readings can be large or run the other way.
Your answer must be one of the following: active, inactive

| Compound | Class assignment |
| --- | --- |
| O=C(NOCC(O)CO)c1cc(Br)c(F)c(F)c1Nc1ccc(I)cc1F (stereo unspecified) | inactive |

Recorded call for `Cc1c[nH]c(C=C2C(=O)Nc3ccccc32)c1CCC(=O)O` ?
active

Which outcome was assigned to `CCCCC1C(=O)N(c2ccccc2)N(c2ccccc2)C1=O` in this test?
inactive

Please share the test call associated with `O=c1cc(-c2cccc3c2Sc2ccccc2S3)oc(N2CCOCC2)c1` .
inactive

Record request — test call for `Cc1ccc(C(=O)Nc2cccc(C(F)(F)F)c2)cc1Nc1nc(-c2cccnc2)nc2c1cnn2C`
active

Short answer needed: outcome of this test for `CC(=O)CCCCn1c(=O)c2c(ncn2C)n(C)c1=O` ?
inactive
